Test system: HCT-8 host cells (Hs18S)
conditionsUsed: primary screening at 10 uM, treated vs control
Label rule met when Hs18S ΔCT is strictly below 0.04; otherwise label rule not met.

Here's what some known entries look like.
Lookup: Lab note: confirm whether the reported Hs18S ΔCT for this compound is below 0.04, equality not counting. compound: COc1cc(OC)c2c(=O)c(OC)c(-c3ccccc3)oc2c1 [GALANGIN TRIMETHYL ETHER]
Found: rule not met

Lookup: Now this one: `COc1cc(O)c(C(=O)/C=C/c2ccc(O)c(OC)c2)c(OC)c1`
Found: rule not met

Lookup: Another compound to check: CC(C)=CCC/C(C)=C/CC/C(C)=C/CC/C(C)=C/CC/C(C)=C/CC/C(C)=C/CC/C(C)=C/CC/C(C)=C/CC/C(C)=C/CO [SOLANESOL]
Found: rule not met

--- query ---
Lookup: A record lists O=C1C[C@@H](c2ccc(O)cc2)Oc2cc(O)cc(O)c21 [NARINGENIN] . Is its Hs18S ΔCT below 0.04?
Found: rule met

====

assayOverview: in vitro
conditionsUsed: human
Structures can show the parent of a compound that is named as a salt.
measuredEndpoint: cytotoxicity at 41 h, 10 µM (%)
Please reply with the bare figure in % and do not write the unit itself.

Lookup: Fill in the blank: the reported cytotoxicity at 41 h, 10 µM of COc1cc(-c2coc3cc(O)c(OC)c(O)c3c2=O)cc(O)c1OC [IRIGENIN] is ____.
Found: -34.9

Lookup: Next entry: COc1cc(O)c(C(C)=O)c(OC)c1 [XANTHOXYLIN]
Found: 5.4

Lookup: Item: `Cc1cc(O)c2c(c1O)C(=O)c1c(O)cc(C)c(O)c1C2=O`
Found: 92

Lookup: Quick one: CC(=O)O[C@@H]1C[C@H]2C(C)(C)C(=O)C=C[C@]2(C)[C@H]2CC[C@@]3(C)[C@H](c4ccoc4)OC(=O)[C@H]4O[C@]43[C@@]21C [GEDUNIN]
Found: 1.2

Lookup: Here is the next compound: CC(C)(O)CC[C@@H](O)[C@](C)(O)[C@H]1CC[C@@]2(O)C3=CC(=O)[C@@H]4C[C@@H](O)[C@@H](O)C[C@]4(C)[C@H]3CC[C@]12C [CRUSTECDYSONE]
Found: -10.6

Lookup: Same question for NC[C@H]1O[C@H](O[C@H]2[C@H](O)[C@@H](O[C@H]3O[C@H](CO)[C@@H](O)[C@H](N)[C@H]3O)[C@H](N)C[C@@H]2N)[C@H](O)[C@@H](O)[C@@H]1O [KANAMYCIN A SULFATE] please.
Found: -23.9

Lookup: Note, next up: C=C(C)[C@@H]1CC[C@]2(C)CC[C@]3(C)[C@H](CC[C@@H]4[C@@]5(C)CC[C@H](O)C(C)(C)[C@@H]5CC[C@]43C)[C@@H]12 [LUPEOL]
Found: 3.4

Lookup: Can you handle COc1cc(OC)c2c(=O)c(-c3ccc4c(c3)OCO4)coc2c1 [DERRUSTONE] next?
Found: 23.9

***
Lookup: Which value of cytotoxicity at 41 h, 10 µM has been reported for COc1ccc2c(=O)ccoc2c1 [7-METHOXYCHROMONE] in the records?
Found: -26.1

Lookup: What about COC(=O)[C@@H]1[C@H]2C[C@H]3c4[nH]c5ccccc5c4CCN3C[C@@H]2CC[C@@H]1O [YOHIMBINE HYDROCHLORIDE] ?
Found: -36.5

Lookup: What about COc1cc(O)ccc1C(C)=O [ISOPEONOL] ?
Found: 2.3

Lookup: // next record CCCCCC(=O)Cc1cc(O)cc(O)c1C(=O)Oc1cc(CC(=O)CCCCC)c(C(=O)O)c(OC)c1 [ARTHONIOIC ACID]
Found: 1.1

Lookup: Can you handle CCCCC[C@H](CC(=O)NO)C(=O)N[C@H](C(=O)N1CCC[C@H]1CO)C(C)C [ACTINONIN] next?
Found: -4.6

Lookup: Cool, now NCCSSCCN [CYSTAMINE DIHYDROCHLORIDE]
Found: -11.2

Lookup: Please do the same for C[n+]1cccc(C(=O)[O-])c1 [TRIGONELLINE] as well.
Found: 2.2

Lookup: Thanks! And COc1ccc(-c2cc(=O)c3c(O)c(OC)c(O[C@@H]4O[C@H](CO[C@@H]5O[C@@H](C)[C@H](O)[C@@H](O)[C@H]5O)[C@@H](O)[C@H](O)[C@H]4O)cc3o2)cc1 [PECTOLINARIN] ?
Found: 74.8

Lookup: How about Nc1ccn([C@@H]2O[C@H](CO)[C@@H](O)[C@H]2O)c(=O)n1 [CYTIDINE] ?
Found: -44.6

Lookup: For CC1=C(/C=C/C(C)=C/C=C/C(C)=C/C=C/C=C(C)/C=C/C=C(C)/C=C/C2=C(C)CCCC2(C)C)C(C)(C)CCC1 [beta-CAROTENE] then?
Found: 2.8

Lookup: COc1cc(C)c(C(=O)Oc2cc(C)c(C(=O)O)c(O)c2C)c(OC)c1C [DIFFRACTAIC ACID] , same question.
Found: 46.7

Lookup: Further, for COc1c(O)cc2c(c1O)[C@@H]1O[C@H](CO)[C@@H](O)[C@H](O)[C@H]1OC2=O [BERGENIN] ?
Found: 23.1

Lookup: How about COC(=O)[C@H]1[C@H]2C[C@@H]3c4[nH]c5cc(OC)ccc5c4CCN3C[C@H]2C[C@@H](OC(=O)c2cc(OC)c(OC)c(OC)c2)[C@@H]1OC [RESERPINE] ?
Found: 29.4

Lookup: Now the same for COc1ccc(-c2cc(=O)c3c(O)cc(O[C@@H]4O[C@H](CO[C@@H]5O[C@@H](C)[C@H](O)[C@@H](O)[C@H]5O)[C@@H](O)[C@H](O)[C@H]4O)cc3o2)cc1O [DIOSMIN]
Found: -57.1

Lookup: Also, COc1ccc(CC(=O)c2ccc(O)cc2O)cc1 [ONONETIN] please.
Found: -12.9

Lookup: Same thing, different compound: Oc1cc2c(cc1O)C1c3ccc(O)c(O)c3OCC1(O)C2 (stereo not drawn) [HAEMATOXYLIN]
Found: 0.1
